Measured values drawn from patent US9682141B2 for this set.

Here we list molecules with their recorded IC50 when tested on PI3K β (Homo sapiens (Human)).
Sequence (P42338 whole entry): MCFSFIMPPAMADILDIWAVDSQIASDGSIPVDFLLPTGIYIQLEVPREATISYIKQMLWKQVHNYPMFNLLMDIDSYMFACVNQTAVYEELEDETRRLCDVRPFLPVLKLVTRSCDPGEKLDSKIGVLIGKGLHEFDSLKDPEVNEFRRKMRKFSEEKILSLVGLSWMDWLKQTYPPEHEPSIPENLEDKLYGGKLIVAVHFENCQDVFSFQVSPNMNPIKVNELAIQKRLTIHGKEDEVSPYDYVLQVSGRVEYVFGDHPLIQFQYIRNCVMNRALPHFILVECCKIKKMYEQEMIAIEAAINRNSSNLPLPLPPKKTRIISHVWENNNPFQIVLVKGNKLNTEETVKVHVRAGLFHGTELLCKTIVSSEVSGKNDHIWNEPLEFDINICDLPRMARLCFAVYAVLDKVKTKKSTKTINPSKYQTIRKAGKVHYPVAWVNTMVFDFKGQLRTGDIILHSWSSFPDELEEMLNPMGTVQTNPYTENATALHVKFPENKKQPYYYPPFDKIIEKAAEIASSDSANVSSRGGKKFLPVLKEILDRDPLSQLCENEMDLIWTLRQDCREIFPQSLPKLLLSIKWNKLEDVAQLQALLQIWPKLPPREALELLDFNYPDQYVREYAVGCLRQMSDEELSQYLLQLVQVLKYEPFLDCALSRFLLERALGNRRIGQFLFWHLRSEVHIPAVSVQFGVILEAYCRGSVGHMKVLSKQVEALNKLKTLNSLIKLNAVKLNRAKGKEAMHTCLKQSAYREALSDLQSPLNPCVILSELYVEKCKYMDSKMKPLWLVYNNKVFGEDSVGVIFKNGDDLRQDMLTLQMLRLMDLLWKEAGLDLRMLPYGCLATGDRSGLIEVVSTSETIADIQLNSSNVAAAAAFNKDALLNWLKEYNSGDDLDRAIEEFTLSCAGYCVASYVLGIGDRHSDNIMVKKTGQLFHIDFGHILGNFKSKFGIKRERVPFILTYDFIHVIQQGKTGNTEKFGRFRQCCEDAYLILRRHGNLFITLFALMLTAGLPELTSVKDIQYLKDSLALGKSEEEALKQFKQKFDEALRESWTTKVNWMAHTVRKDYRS
Sequence (P27986 whole entry partner): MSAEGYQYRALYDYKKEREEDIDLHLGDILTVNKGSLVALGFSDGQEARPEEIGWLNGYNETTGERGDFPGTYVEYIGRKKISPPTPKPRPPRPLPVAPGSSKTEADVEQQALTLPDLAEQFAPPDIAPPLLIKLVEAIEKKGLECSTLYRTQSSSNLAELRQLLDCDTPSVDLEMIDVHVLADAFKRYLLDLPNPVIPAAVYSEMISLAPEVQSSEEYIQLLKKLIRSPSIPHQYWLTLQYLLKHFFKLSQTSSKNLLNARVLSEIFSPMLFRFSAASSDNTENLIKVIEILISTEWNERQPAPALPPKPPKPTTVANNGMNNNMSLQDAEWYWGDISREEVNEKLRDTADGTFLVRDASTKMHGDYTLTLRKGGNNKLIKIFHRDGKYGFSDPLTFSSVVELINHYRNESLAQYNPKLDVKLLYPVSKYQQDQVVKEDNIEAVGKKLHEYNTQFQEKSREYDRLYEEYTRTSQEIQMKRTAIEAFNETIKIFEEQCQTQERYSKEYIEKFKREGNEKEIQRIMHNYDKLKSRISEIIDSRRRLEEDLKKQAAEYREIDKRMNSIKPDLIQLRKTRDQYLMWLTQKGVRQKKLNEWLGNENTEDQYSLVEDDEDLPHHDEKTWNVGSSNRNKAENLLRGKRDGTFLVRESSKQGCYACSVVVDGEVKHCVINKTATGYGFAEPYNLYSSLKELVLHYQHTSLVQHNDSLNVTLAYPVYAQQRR

Nc1nc2cc(-c3ccc4ncc(N5CCOCC5)nc4n3)ccc2o1: < 1 µM
CC(Oc1nc(-c2ccc3oc(N)nc3c2)cnc1N)C(F)(F)F (centres unmarked): < 1 µM
CC(Oc1nc(-c2ccc3ncc(C(=O)N4CCOCC4)n3c2)cnc1N)C(F)(F)F (centres unmarked): < 10 µM
CN1CCC(NC(=O)c2cnc3ccc(-c4ccc5oc(N)nc5c4)cn23)CC1: < 1 µM
COc1nc(-c2ccc3oc(N)nc3c2)cnc1N: < 1 µM

For each of the molecules below, state IC50.
1. Nc1nc2cc(-c3ccc4ncc(N5CCN(C(=O)C6(N)CC6)CC5)nc4n3)ccc2o1
2. Nc1nc2cc(-c3ccc4ncc(N5CCN(CCO)CC5)nc4c3)ccc2o1
3. CN1CCN(C2CN(c3cnc4ccc(-c5ccc6oc(N)nc6c5)cc4n3)C2)CC1

1. < 10 µM
2. < 0.1 µM
3. < 10 µM
